# Read-out: Intercellular Adhesion Molecule 1 (ICAM1), ICAM1 (gene 3383)
# Assay method text: BSK_KF3CT_ICAM1: BioMAP Diversity Plus: KF3CT Assay for Intercellular Adhesion Molecule 1 (ICAM1) Biomarker Activity (AID 2283067)
# Settings: primary human keratinocytes with fibroblasts; actives raise or lower the signal
Active and inactive are the calls of the source. How the source made its calls: active means hit-call score of the fitted dose curve at least 0.9, where 1 is the maximum; inactive means score below 0.9.
Possible outcomes: true (active), false (inactive)

Test smiles: CCO[Si](CCCNC(N)=O)(OCC)OCC
Class: false

Test smiles: CCCCCCCCCC(=O)O
Class: false

Test smiles: CCOC(=O)O[C@H](C)OC(=O)c1ccc2c(c1)cc(C(=O)NC1CCN(C(C)C)CC1)n2Cc1cc(-c2ccc(Cl)s2)on1
Class: true

Test smiles: Cc1c2ccccc2c(C)c2c1ccc1ccccc12
Class: false

Test smiles: CC[C@H](NC(=O)c1cc(F)ccc1NS(=O)(=O)c1cccc2cccnc12)c1ccccc1
Class: false

Test smiles: CC(C)(O)c1ccc(CNC(=O)c2cccnc2Oc2ccc3nonc3c2)cc1
Class: false

Test smiles: CCCCCCCCCCCCO
Class: true

Test smiles: CC(C)(C)c1csc(-c2cc3cc(OCc4ccccc4CC(=O)O)ccc3o2)n1
Class: true

Test smiles: O=C(O)c1ccccc1-n1cc(C(=O)O)c(=O)c2cc(Nc3c(F)cc(F)cc3Cl)c(Cl)cc21
Class: false

Test smiles: COc1ccc2cc(S(=O)(=O)N[C@H](CC(=O)N[C@H](Cc3ccc(CN4[C@H](C)CCC[C@@H]4C)cc3)C(=O)N(C)C(C)C)c3ccc4c(c3)OCO4)ccc2c1
Class: false

---

# Assay method text: ACEA_AR_agonist_AUC_viability: ACEA Biosciences xCELLigence Real-Time Cell Analysis on Androgen Receptor Agonism for Viability (AID 2283775)
Results filed as inconclusive are left out. The source made the active and inactive calls. The calls were made as follows: active = hit-call score of the fitted dose curve at least 0.9, where 1 is the maximum; inconclusive = response in the unintended direction; inactive = score below 0.9.
Possible outcomes: yes for active, no for inactive

Molecule: c1ccc(C[n+]2cccc3ccccc32)cc1
Class: yes
//
Molecule: OCCO
Class: no
//
Molecule: O=C1CCC(C2CCCCC2)CC1
Class: yes
//
Molecule: O=c1ccc2ccccc2o1
Class: no
//
Molecule: Cc1oc2c(NC(=O)c3c(Cl)cccc3Cl)cccc2c1C(C)(C)O
Class: yes
//
Molecule: CCCCCCCCCCCCO
Class: no
//
Molecule: CN1C(=O)N(c2ccccc2Br)Cc2cnc(Nc3ccc4c(c3)OCC(CO)O4)nc21 (configuration not stated)
Class: yes

---

# Read-out: Alpha-fetoprotein (AFP) gene, AFP (gene 174)
# Assay method text: LTEA_HepaRG_AFP: Life Technologies and Expression Analysis (LTEA) Assay for Alpha-fetoprotein (AFP) gene using HepaRG (AID 2283472)
# Settings: mRNA level, 48 h; actives raise or lower the signal
Activity calls are given as the source filed them. Rule for the calls: active = hit-call score of the fitted dose curve at least 0.9, where 1 is the maximum; inactive = score below 0.9.
Possible outcomes: yes (1) (active), no (0) (inactive)

Compound: Cc1cn([C@H]2C[C@H](N=[N+]=[N-])[C@@H](CO)O2)c(=O)[nH]c1=O
Class: no (0)
//
Compound: CCCC(=O)OCCC(C)C
Class: no (0)
//
Compound: OCCO
Class: no (0)
//
Compound: O=C1O[C@H]([C@@H](O)CO)C(O)=C1O
Class: no (0)
//
Compound: COc1cccc([C@H](O)C2CCN(CCc3ccc(F)cc3)CC2)c1OC
Class: no (0)
//
Compound: OC12N=C(c3ccccc3)SC1Cc1cc(Cl)ccc12 (centres undefined)
Class: yes (1)
//
Compound: O=CCCCC=O
Class: no (0)
//
Compound: Cc1ncc(CO)c(CO)c1O
Class: no (0)
//
Compound: Clc1cc(Cl)c2c(c1)N=C1CCCCCN1C2
Class: yes (1)
//
Compound: CC[C@H](NC(=O)c1cc(F)ccc1NS(=O)(=O)c1cccc2cccnc12)c1ccccc1
Class: yes (1)
//
Compound: CCCCCc1ccc(N)cc1
Class: no (0)
//
Compound: CCCCCCCCCCCC[N+](C)(C)C
Class: no (0)
//
Compound: COCC(C)OCC(C)OCC(C)O (centres undefined)
Class: no (0)
//
Compound: O=C(Nc1ccc(Cl)cc1)Nc1ccc(Cl)c(Cl)c1
Class: no (0)
